# Test system: K4 kissing-loop RNA reporter
# testProtocol: apparent KD of K4 kissing-loop reporter; higher = weaker reporter binding
# assaySetup: Eterna round: R107; input ligand: FMN 200 uM
Use met when the recorded apparent KD of K4 kissing-loop reporter is no lower than 300 nM; use not met when it is lower.

Use the examples below as a reference point.
GGGUAUUACGGAGGAUAUGCACUGAGGAGGAGAAUAUAGUGAUGUUAUAUAAGAGGAAGGAGAAGAGUAGAAGGCCGUGGUAUUG [SSFMNB.H] | not met
AAAGAGUCCUGAGCCGAAGAAGAAGGCGGACGAGGACCGGUACGGCCGCCACUCGAAAGGAGUGCGGCUGAGUGAUGUUUGGCCG [Tryptophan A (C-G optomized)] | met
AAAUAGAUCAGUCACCCAGUGAUGUUGGAAGGAGCGUGCGAAAGCACAGGUAGGUCGCCAAAAUAAAAGUGGCUGAUCAAAAUAA [#SwitchBubble 5 #K4Early] | met
UAUACGAAGCAGUGAUGUUGCUUAUGAGAAGGAGCGCACGAAAGUGCAGGUAGGUCGCUCAGCCAUGUGGACGAAAACGUCCACA [whbob_SS_Arginine_A_sa110] | not met
CAUAGGAAACUAUGUAUCUCUCUUACUGAAGGAGCGCGUGAAAACGCAGGUAGGUCGCAGAAUUUAAAAGAGAGUGAUGUUCUCU [Ex Arginine A K4 8] | met

Please find the next sequence below.
Challenge: hey, is apparent KD of K4 kissing-loop reporter for this one >= 300 nM? AAGAGCCUCAAGAGGCAGUAUCUGCCUCAACGAGGACCGGUACGGCCGCCACUCGAAUAAUAGAGUGAUGUUCUAAGAGGCUCAA [AK8 SS Tryptophan A]
Response given: met

* * *

Can you tell me apparent KD of K4 kissing-loop reporter for the items I'm about to list?
# Tested on: K4 kissing-loop RNA reporter;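 note: bound reporter read as fluorescence of individual clusters on recovered sequencing chips by microscopy, with normalized cluster intensities fitted with a binding model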
# testProtocol: apparent KD of K4 kissing-loop reporter; higher = weaker reporter binding
# assaySetup: Eterna round: R107; input ligand: tryptophan 2.4 mM
Units required after the number.

UUUCGGUUCUGAGGAUAUUCGGACAAAUAUAGUGAUGUUGUAUAAGGAGGAGGGUGUUGGGAGUGAGGAGAAGGCAGAAGAGGAU [ExFMNB.S] | 473 nM
AGACUACCACACUGUCAAUAGACAGUGAGCUAGGAUAUGCUGAUAAGCAGAAGGAGUGAUGUUCCCAGGUAGUCAAUAAAAUAAU [FmnAX 13 G29+C66] | 238 nM
UAUUAAUUGUCAGGAUAUCGUAUUCGAGUGAUGUUCGUAUAUCGACGAUAGUCGAUAUUAUCUAUACGAGAAGGGACAUUAUUUA [JR_SSFMNB_Sub006] | 379 nM
AACAUUUUCAGAAGGAGCGUGAAUUAUUCAUAAUUAUAUUAUACGAGUGAUGUUCGUAUUUCACAGGUAGGUCGCUGAUAUAGUA [#02 K4 Arginine B Same State] | 93.1 nM
AAGCAGUCACUCGAAAUCAUCAAAGAUGAACGAGGACCGGUACGGCCGCCACUCGGAGUGAUGUUCCGAAGACUGCAAAAUAAAA [MatMod 2 - Jieux - Exclusion - Tryptophan A] | 112 nM

List reported apparent KD of K4 kissing-loop reporter for each of these sequences:
1. GCUAUGGUAGGAAGGAGCGCUUACUCGGUCAUAAGAGUGAUGUUCGAGACCGAGUAUUUAUAGCAGGUAGGUCGCCUACUAUAGC [Arginine B K4 6]
2. CCCUCACGAGUGAUGUUCGUAGGGUACAGUCAGGAUAUCAUGCGGUUGAGAAGGGACAGAGAGGGCGGCCACGGGUUGCUCCUCU [Lariusteza]

Response given:
352 nM
305 nM

Origin of values: the supplement of paper PMC9170038
